- Tested on: parental HEK cells
- protocol.details: HEK parental Agonist Counterscreen Assay (non-transfected cells)
- Type: cell-based
- experimental.setup: HEK Agonist Activity
measure: Lipophilic Efficiency (logD)

Example cases with answers are listed next.
{"compound": "O=C(CC(c1ccccc1)c1ccccc1)Oc1coc(CSc2ncccn2)cc1=O", "target.or.system": "parental HEK cells", "Lipophilic Efficiency (logD)": 0.13}
{"compound": "COc1cccc(C(=O)NNC(=O)C(C)Oc2ccc(Cl)cc2Cl)c1 (centres unmarked)", "target.or.system": "parental HEK cells", "Lipophilic Efficiency (logD)": 1.52}
{"compound": "O=C(CCc1nc2ccccc2n1-c1ccccc1)NCCc1ccccc1", "target.or.system": "parental HEK cells", "Lipophilic Efficiency (logD)": "−0.133"}

(A) O=C(CN1C(=O)NC2(CCc3ccccc3C2)C1=O)Nc1ccccc1Oc1ccccc1 (centres unmarked)
(B) Cc1ccc(CCNC(=O)Cn2cc3c(n2)CCCCC3)cc1
(Q) Choose between A and B : whose measured Lipophilic Efficiency (logD) value is numerically larger? State your choice using its label.
(A) B
(B: 1.26, A: 0.84)

(P) O=C(NCC1Cc2cccc(-c3ccccn3)c2O1)c1ccc(-n2cccn2)cc1 (centres unmarked)
(Q) COP(=O)(CN(CCc1ccc(Cl)cc1)C(=O)Nc1ccc(Cl)c(Cl)c1)OC
(R) C=C(C)CN(CC)C(=O)CN1C(=O)NC(C)(c2ccc3ccccc3c2)C1=O (centres unmarked)
(S) Cc1cc(C(=O)CCC(=O)NNC(=O)c2ccc(COc3ccccc3)cc2)c(C)o1
(T) CC(C)C1CC(=O)[C@@H]2C[C@@H](CC2C(=O)CC2CCOc3ccccc3C2)C2C=CC(=C2)CCC(=O)[C@@H](Cc2ccccc2)NC1=O (some centres unmarked)
(Q) Order the records, beginning with the lowest Lipophilic Efficiency (logD) and ending with the highest. Form entry: labels listed in requested order.
(A) Q, S, P, R, T
(Q: −0.34, S: 0.40, P: 1.16, R: 2.25, T: 3.96)

(I) Cc1cc(C(=O)CCC(=O)NNC(=O)CSc2nc3ccccc3s2)c(C)s1
(II) CC1CCCC(NC(=O)CN2CCCN(Cc3ccc(F)cc3Cl)C2=O)C1C (centres unmarked)
(Q) For the two items I and II , which reports the higher Lipophilic Efficiency (logD) value? To answer, give the label that identifies your chosen option.
(A) II

(P) CC(NC(=O)COC(=O)c1ccccc1C(F)(F)F)c1ccccc1 (centres unmarked)
(Q) Cn1cnnc1SCc1ccc(F)c2ccccc12
(Q) Which of these two has the smaller recorded Lipophilic Efficiency (logD): P or Q ? Provide the label of your selected option as the answer.
(A) P

(A) Cc1ccc(CCNC(=O)Cn2cc3c(n2)CCCC3)cc1
(B) Cc1ccc(C2(C)NC(=O)N(CC(=O)NCC(C)C)C2=O)cc1 (centres unmarked)
(C) Cc1cccc(C(=O)NNC(=O)C(C)Oc2ccc(O)cc2O)c1 (centres unmarked)
(D) Cc1cccc(Cc2cnc(NC(=O)CC(C)C)s2)c1
(Q) Could you please order the items by Lipophilic Efficiency (logD), going from the lowest number to the highest? Would you mind listing the labels in the order requested?
(A) D, C, A, B

(P) Cc1c(Br)c([N+](=O)[O-])nn1CC(=O)NCCc1ccc(Cl)cc1
(Q) CN1CCC(Oc2cc(-c3cn[nH]c3)ccc2NC(=O)C2COc3ccc(F)cc3C2)C1 (centres unmarked)
(Q) Looking at recorded values for Lipophilic Efficiency (logD), does P or Q come in lower? Mark your answer with the label of the selected entry.
(A) P
(P: 1.44, Q: 2.91)

(A) O=C(CN1CCN(Cc2ccccc2Cl)C1=O)NCc1ccccc1Cl
(B) CN(Cc1cccs1)C(=O)CN1C(=O)NC(C)(c2ccc3c(c2)OCO3)C1=O (centres unmarked)
(Q) Name the one with the greater Lipophilic Efficiency (logD) value, either A or B as given. Mark your selection by writing its label.
(A) B
(B: 3.29, A: 1.94)

(P) Cc1c(C(=O)NC(C)(C)CO)cnn1-c1ncc2c(n1)-c1ccccc1CC2
(Q) O=C(COc1ccccc1Cl)NNC(=O)CSc1ccc2ccccc2c1
(Q) Sorting ascending by Lipophilic Efficiency (logD), which comes first: P or Q ? # reply format: chosen label
(A) Q
(Q: 1.38, P: 2.16)
